Each recorded value in this set is attributed to paper PMC7793522.

Target: T1, HIV peptide on HLA-A*24:02 (human)
T1 peptide: RFPLTFGWCF
Test: data from [111]; method not given; soluble, other
parameter: Kd (µM)
Express the result in µM but write the number alone.

// C1-28 (TCR) alpha TRAV8-3*01 CDR3: AVGAPSGAGSYQLT beta TRBV4-1*01 CDR3: ASSPTSGIYEQY : Kd value = 21.1
